Target: Integrin alpha-4/beta-7 (Homo sapiens, UniProt P13612+P26010)
Sequence (P13612 whole entry): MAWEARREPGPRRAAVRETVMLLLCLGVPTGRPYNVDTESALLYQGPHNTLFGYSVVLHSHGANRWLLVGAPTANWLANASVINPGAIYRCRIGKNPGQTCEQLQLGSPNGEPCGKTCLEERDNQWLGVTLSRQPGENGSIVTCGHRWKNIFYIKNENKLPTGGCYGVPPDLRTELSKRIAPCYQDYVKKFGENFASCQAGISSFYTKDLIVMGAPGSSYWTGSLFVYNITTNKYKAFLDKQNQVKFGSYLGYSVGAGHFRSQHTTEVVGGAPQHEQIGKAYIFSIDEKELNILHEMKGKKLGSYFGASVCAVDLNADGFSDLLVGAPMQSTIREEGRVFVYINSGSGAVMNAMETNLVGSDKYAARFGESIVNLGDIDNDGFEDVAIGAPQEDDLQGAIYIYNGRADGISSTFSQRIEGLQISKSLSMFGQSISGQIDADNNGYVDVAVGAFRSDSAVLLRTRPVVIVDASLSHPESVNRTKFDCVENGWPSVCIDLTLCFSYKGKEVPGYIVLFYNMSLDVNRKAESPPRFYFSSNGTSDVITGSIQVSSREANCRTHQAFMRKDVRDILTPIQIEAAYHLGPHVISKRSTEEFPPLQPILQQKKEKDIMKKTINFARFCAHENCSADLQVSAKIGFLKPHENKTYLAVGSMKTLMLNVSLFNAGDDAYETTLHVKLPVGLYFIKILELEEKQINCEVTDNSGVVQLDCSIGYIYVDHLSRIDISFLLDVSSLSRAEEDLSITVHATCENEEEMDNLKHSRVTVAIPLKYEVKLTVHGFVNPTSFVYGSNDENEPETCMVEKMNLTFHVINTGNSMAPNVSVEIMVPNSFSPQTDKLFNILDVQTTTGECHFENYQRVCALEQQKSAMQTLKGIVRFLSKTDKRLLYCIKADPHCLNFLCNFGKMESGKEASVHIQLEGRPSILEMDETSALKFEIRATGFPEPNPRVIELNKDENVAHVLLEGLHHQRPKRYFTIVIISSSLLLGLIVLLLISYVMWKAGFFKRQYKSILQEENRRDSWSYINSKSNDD
Sequence (P26010 whole entry): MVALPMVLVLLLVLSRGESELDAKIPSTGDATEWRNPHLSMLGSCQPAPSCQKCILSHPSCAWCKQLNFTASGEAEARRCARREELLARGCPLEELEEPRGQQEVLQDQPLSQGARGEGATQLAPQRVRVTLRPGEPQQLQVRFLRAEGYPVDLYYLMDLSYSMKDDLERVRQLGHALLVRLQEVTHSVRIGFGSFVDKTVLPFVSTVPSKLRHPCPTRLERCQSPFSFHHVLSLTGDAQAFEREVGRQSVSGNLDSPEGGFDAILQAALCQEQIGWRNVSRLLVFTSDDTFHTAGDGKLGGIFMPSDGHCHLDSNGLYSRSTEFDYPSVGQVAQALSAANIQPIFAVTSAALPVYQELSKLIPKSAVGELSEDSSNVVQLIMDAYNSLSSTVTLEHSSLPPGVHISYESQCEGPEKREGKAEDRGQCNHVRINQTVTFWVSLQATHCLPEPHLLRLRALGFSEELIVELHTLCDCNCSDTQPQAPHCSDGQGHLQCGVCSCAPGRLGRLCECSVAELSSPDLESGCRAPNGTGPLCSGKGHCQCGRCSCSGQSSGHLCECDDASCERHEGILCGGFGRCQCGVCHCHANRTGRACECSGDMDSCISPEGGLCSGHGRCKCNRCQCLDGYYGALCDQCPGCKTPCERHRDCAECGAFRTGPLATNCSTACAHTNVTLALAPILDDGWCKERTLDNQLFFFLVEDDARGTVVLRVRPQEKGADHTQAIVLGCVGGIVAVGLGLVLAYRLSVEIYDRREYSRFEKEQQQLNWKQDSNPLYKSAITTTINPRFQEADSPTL
Assay: Inhibition of human integrin alpha-4-beta-7-MAdCAM interaction in human RPMI 8866 cells by whole-cell adhesion assay
pIC50: −log10 of the molar value.
In this section we review reported pIC50 values for a set of molecules.
parameter: pIC50

• O=C1NC(=O)N(c2ccccc2)C(=O)/C1=C\c1ccco1 = 5.89
• O=C1NC(=O)N(c2ccccc2-c2ccccc2)C(=O)/C1=C\c1c[nH]c2ccccc12 = 6.59
• O=C1NC(=O)N(c2ccccc2)C(=O)/C1=C\c1ccccc1 = 5.66
• O=C1NC(=O)N(c2ccccc2)C(=O)/C1=C\c1ccc(C(F)(F)F)cc1 = 5.89
